TEST DETAILS: Ratio of the Ki value towards bovine chymotrypsin to that of HLE.
ENDPOINT LABEL: Ratio
# answer = number (no unit)

Q: State the recorded Ratio for this entry: CC(C)c1cc2c3ccccc3nc-2c(O)n1CC(=O)NC(C(=O)C(F)(F)F)C(C)C (centres undefined)
A: 20

Q: Could you share which Ratio value was measured for COP(=O)(OC)c1cccc2c3cc(-c4ccccc4)n(CC(=O)NC(C(=O)C(F)(F)F)C(C)C)c(O)c-3nc12 (centres undefined) ?
A: 500

Q: // Ratio lookup, key: CC(C)C(NC(=O)Cn1c(-c2ccccc2)cc2c3cccc(C#N)c3nc-2c1O)C(=O)C(F)(F)F (centres undefined)
A: 27

Q: So what's the measured Ratio for this one? CC(C)C(NC(=O)Cn1c(-c2ccccc2)cc2c3ccccc3nc-2c1O)C(=O)C(F)(F)F (centres undefined)
A: 70
